inhibition at 1 µM values by entry
biological target: Amine oxidase [flavin-containing] A (Homo sapiens, UniProt P21397); test: Inhibition of recombinant MAO-A (unknown origin) assessed as reduction in 4-hydroxyquinoline level using kynuramine as a substrate at 1 uM incubated for 20 mins by discontinuous fluorimetric assay relative to control
Sequence (P21397 whole entry): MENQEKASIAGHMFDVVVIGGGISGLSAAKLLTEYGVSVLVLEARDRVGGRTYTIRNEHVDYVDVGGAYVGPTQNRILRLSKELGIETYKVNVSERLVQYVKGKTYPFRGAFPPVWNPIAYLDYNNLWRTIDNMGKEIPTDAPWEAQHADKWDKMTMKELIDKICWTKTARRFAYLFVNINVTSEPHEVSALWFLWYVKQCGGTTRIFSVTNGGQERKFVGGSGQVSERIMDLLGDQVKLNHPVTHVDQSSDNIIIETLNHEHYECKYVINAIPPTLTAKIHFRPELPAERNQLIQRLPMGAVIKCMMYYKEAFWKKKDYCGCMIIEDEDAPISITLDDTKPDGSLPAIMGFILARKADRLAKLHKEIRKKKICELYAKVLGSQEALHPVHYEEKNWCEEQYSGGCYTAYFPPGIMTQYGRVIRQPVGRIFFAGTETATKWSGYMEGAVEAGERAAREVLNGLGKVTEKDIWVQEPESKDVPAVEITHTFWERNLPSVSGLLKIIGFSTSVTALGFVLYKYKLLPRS
Return type: number; implicit unit %.

- molecule: "C#CCN1C(=O)C(C(=O)NCc2ccccc2)(N2CCCC2=O)c2ccccc21 (stereo not given)"
  measured.on: "Amine oxidase [flavin-containing] A (Homo sapiens, UniProt P21397)"
  inhibition at 1 µM, %: 13.2
- molecule: "C#CCN1C(=O)C(C(=O)NC(C)(C)C)(N2CCC2=O)c2ccccc21 (stereo not given)"
  measured.on: "Amine oxidase [flavin-containing] A (Homo sapiens, UniProt P21397)"
  inhibition at 1 µM, %: 5.9
- molecule: "C#CCN(C)CCCOc1ccc(Cl)cc1Cl [CLORGILINE]"
  measured.on: "Amine oxidase [flavin-containing] A (Homo sapiens, UniProt P21397)"
  inhibition at 1 µM, %: 100
- molecule: "C[C@H](NCc1ccc(OCc2cccc(F)c2)cc1)C(N)=O [SAFINAMIDE]"
  measured.on: "Amine oxidase [flavin-containing] A (Homo sapiens, UniProt P21397)"
  inhibition at 1 µM, %: -1.6

For the next question, use this molecule.
Task: What does the record list as inhibition at 1 µM for C#CCN1C(=O)C(C(=O)NCc2ccccc2)(N2CCC2=O)c2ccccc21 (stereo not given) ?
Output: 8.9
